target: serum α1,3-L-fucosyltransferase (Homo sapiens, UniProt P51993); construct: Sera were collected from healthy females and ovarian cancer patients; from tissue; host or cells: blood serum of ovarian cancer patients and healthy females; experiment: Assay of α1,3-fucosyltransferase with various synthetic acceptors, ovarian cancer sera as enzyme source; format: biochemical; details: acceptor 0.3 mM, 37° C. 18 h
MEASUREMENT LABEL: [14C] Fucose Incorporated (CPM)

Observe how each entry below is paired with its result.
CC(=O)N[C@H]1[C@H](OCc2ccccc2)O[C@H](CO)[C@@H](O)[C@@H]1O[C@@H]1O[C@H](CO)[C@H](O)[C@H](OS(=O)(=O)O)[C@H]1O [3-SulfoGa1β1,3G1cNAcβ-O--Bn] = 0
CC(=O)N[C@H]1C(O)O[C@H](COS(=O)(=O)O)[C@@H](O[C@@H]2O[C@H](CO)[C@H](O)[C@H](O)[C@H]2O)[C@@H]1O (stereo partly shown) [6-Sulfo LacNAc] = 2983
CO[C@H]1[C@H](O[C@H]2[C@H](O)[C@@H](NC(C)=O)C(O)O[C@@H]2CO)O[C@H](CO)[C@H](O)[C@@H]1O (stereo partly shown) [2'-methyl LacNAc] = 1730
CC(=O)N[C@H]1[C@H](OCc2ccccc2)O[C@H](CO)[C@@H](O[C@@H]2O[C@H](CO)[C@H](O)[C@H](O)[C@H]2O)[C@@H]1O [LacNAcβ-O--Bn] = 6207
CC(=O)N[C@H]1C(O)O[C@H](CO)[C@@H](O)[C@@H]1O[C@@H]1O[C@H](CO)[C@H](O)[C@H](O)[C@H]1O (stereo partly drawn) [Ga1β1,3G1cNAc] = 227
CO[C@H]1[C@H](O[C@H]2[C@H](O)[C@@H](NC(C)=O)[C@H](OCc3ccccc3)O[C@@H]2CO)O[C@H](CO)[C@H](O)[C@@H]1O [2'-methyl LacNAcβ-O--Bn] = 5326

1. CC(=O)N[C@H]1C(O)O[C@H](CO)[C@@H](O[C@@H]2O[C@H](COS(=O)(=O)O)[C@H](O)[C@H](O)[C@H]2O)[C@@H]1O (stereo partly shown) [6'-Sulfo LacNAc]
2. CC(=O)N[C@H]1[C@H](OCc2ccccc2)O[C@H](CO)[C@@H](O[C@@H]2O[C@H](CO)[C@H](O)[C@H](OS(=O)(=O)O)[C@H]2O)[C@@H]1O [3'-Sulfo LacNAcβ-O--Bn]
[in] # argmax over [14C] Fucose Incorporated (CPM) for candidates 1 and 2 Record your answer as the label of the chosen record.
[out] 2
(2: 2913 CPM, 1: 626 CPM)

====

Target: serum α1,3-L-fucosyltransferase (Homo sapiens, UniProt P51993)
Construct: Sera were collected from healthy females and ovarian cancer patients; from tissue; host or cells: blood serum of ovarian cancer patients and healthy females
Sequence (P51993 35-359 limits assumed): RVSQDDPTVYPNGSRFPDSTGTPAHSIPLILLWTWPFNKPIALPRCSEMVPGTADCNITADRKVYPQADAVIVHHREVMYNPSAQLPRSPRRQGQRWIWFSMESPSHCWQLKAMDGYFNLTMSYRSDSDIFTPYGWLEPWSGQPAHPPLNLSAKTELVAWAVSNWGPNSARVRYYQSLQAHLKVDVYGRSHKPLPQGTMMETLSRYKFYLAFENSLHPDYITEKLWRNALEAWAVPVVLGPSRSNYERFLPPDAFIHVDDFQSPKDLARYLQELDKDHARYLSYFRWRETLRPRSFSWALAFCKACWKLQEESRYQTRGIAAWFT
Test: Assay of α1,3-fucosyltransferase with various synthetic acceptors, ovarian cancer sera as enzyme source
Format: biochemical
Conditions: acceptor 0.3 mM, 37° C. 18 h
MEASUREMENT LABEL: [14C] Fucose Incorporated (CPM)

CC(=O)N[C@H]1C(O)O[C@H](CO)[C@@H](O[C@@H]2O[C@H](CO)[C@H](O)[C@H](O)[C@H]2OS(=O)(=O)O)[C@@H]1O (some centres unmarked) [2'-Sulfo LacNAc] = 380

a. CC(=O)N[C@H]1[C@H](OCc2ccccc2)O[C@H](CO)[C@@H](O)[C@@H]1O[C@@H]1O[C@H](CO)[C@H](O)[C@H](O)[C@H]1O [Ga1β1,3G1cNAcβ-O--Bn]
b. CC(=O)N[C@H]1C(O)O[C@H](CO)[C@@H](O[C@@H]2O[C@H](CO)[C@H](O)[C@H](OS(=O)(=O)O)[C@H]2O)[C@@H]1O (some centres unmarked) [3'-Sulfo-LacNAc]
c. CC(=O)N[C@H]1[C@@H](Oc2ccccc2[N+](=O)[O-])O[C@H](CO[C@@H]2O[C@H](CO)[C@@H](O)[C@H](O)[C@H]2NC(C)=O)[C@H](O)[C@@H]1O [G1cNAcβ1,6Ga1NAcα-O--ONp]
d. CC(=O)N[C@H]1C(O)O[C@H](CO)[C@@H](O[C@@H]2O[C@H](CO)[C@H](O)[C@H](O)[C@H]2O)[C@@H]1O (some centres unmarked) [LacNAc]
[in] # rank_down: sort by [14C] Fucose Incorporated (CPM), max first Please respond by ranking the labels in the order requested.
[out] b, d, a, c
(b: 5894 CPM, d: 1615 CPM, a: 376 CPM, c: 164 CPM)
